Target: T1, Human complement C4 protein (Millipore Sigma, Cat. 204886) (human, UniProt P0C0L4 20-675; P0C0L4 680-1446; P0C0L4 1454-1744, limits assumed, natural sulfotyrosines)
T1 construct: mature
T1 sequence (P0C0L4 20-675 limits assumed, form in doubt, chain 1 of 3): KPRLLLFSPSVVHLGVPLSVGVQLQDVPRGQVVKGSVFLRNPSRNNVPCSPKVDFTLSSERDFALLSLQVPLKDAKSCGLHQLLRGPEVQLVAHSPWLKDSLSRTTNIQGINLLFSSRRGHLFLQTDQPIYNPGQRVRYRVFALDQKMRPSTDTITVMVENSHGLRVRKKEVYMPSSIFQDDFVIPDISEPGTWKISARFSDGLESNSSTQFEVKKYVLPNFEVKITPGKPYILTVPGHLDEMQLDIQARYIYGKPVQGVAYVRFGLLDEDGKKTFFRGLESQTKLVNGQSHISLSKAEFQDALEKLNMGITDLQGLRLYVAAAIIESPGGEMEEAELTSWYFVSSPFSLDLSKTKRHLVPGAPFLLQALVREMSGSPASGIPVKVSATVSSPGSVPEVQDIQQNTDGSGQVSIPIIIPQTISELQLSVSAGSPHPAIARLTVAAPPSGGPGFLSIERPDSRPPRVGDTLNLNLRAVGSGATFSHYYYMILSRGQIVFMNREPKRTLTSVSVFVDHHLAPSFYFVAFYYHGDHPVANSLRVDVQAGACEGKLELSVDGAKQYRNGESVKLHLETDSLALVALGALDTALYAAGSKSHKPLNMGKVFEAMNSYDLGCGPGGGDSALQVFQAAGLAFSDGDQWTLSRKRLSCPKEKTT
T1 sequence (P0C0L4 680-1446 limits assumed, form in doubt, chain 2 of 3): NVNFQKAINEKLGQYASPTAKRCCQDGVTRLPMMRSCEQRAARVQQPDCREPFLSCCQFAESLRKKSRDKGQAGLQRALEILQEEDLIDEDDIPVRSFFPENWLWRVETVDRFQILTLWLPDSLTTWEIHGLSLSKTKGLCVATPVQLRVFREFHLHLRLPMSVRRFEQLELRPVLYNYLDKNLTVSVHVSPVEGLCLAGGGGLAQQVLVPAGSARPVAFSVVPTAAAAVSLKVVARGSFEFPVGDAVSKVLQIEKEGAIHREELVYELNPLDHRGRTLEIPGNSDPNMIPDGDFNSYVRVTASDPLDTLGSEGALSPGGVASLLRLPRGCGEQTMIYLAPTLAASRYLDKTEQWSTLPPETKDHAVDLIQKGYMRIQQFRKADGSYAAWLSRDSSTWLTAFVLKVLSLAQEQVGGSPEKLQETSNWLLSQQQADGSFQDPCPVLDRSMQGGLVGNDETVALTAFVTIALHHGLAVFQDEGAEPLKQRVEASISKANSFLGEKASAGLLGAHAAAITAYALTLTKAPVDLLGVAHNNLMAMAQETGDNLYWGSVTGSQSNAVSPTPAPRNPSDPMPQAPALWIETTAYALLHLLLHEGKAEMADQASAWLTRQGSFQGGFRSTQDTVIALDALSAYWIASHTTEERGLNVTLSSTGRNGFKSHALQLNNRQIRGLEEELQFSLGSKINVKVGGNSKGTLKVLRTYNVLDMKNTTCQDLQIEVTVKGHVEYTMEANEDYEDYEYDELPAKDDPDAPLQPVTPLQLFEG
T1 sequence (P0C0L4 1454-1744 limits assumed, form in doubt, chain 3 of 3): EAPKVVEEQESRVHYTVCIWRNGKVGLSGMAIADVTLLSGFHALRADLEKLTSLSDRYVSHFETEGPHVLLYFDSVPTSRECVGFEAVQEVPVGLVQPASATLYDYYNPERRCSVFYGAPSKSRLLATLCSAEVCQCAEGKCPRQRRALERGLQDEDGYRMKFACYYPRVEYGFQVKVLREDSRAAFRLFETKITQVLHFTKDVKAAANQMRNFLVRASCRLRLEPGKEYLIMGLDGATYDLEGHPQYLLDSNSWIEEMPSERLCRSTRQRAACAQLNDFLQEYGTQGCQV
Test: ELISA, 50 nM mAb
Below, each entry is listed with its recorded binding normalized to PSGL-1.
Output: the number by itself.

02E01 (antibody, IgG4, V domains shown) VH: EVQLVQSGGGVVQPGRSLRLSCAASGFTFSRYGMHWVRQAPGKGLEWVSVISYDGNNKYYADSVKGRFTISRDNSKNTVYLQMNSLRADDTAVYYCARNVPVTNFGYWGQGTLVTVSS VL: QSALTQPASVSGSPGQSITISCTGTSSDVGGYNYVSWYQQHPGKAPKLMIYDVSKRPSGVSNRFSGSKSGNTASLTISGLQAEDEADYYCSSYTRPGRVFGGGTKLTVL ... 0.87

Consider the additional binder presented here.
Sample 19I01 (antibody, V domains shown, From mouse immunisation; only variable domains given; also called 19101) VH: EVQLVESGGGLVKPGGSRKLSCAASGFTFSDYGMHWVRQAPEKGLEWVAYISSGSSTIYYADTVKGRFTISRDNAKNTLFLQMTSLRSEDTAMYYCARGVDGYWGQGTTLTVSS VL: DVVMTQTPLSLPVSLGDQASISCRSSQSLVHSNGNTYLHWYLQKPGQSPKFLIYKVSNRFSGVPDRFSGSGSGTDFTLKISRVEAEDLGVYFCSQTTHVPLTFGAGTKLELK — what was its binding normalized to PSGL-1?
-0.01
